System: RXF 393 renal
Test: NCI-60 one-dose screen, 48 h
Conditions: 10 µM unless noted
Experimental: Cells are grown in 96 well plates and exposed to the test compound for 48 hours. Compounds are tested at a single concentration, which is 10^-5 M for most compounds. The reported endpoint is percent growth (GI% or GIPRCNT), where numbers from 0 - 100% represent growth inhibition, and numbers from -100% - 0 represent cell death. For example, a value of 40 represents 60% growth inhibition. A value of 0 means no net growth occurred over the course of the experiment. […]
This is part of a sample that, as a whole, favours compounds with a hit. Of some 83,000 tested, about 20% had one in any assay. The source made the active and inactive calls. How the source made its calls: active means growth percent below 10; inactive means the rest.
Possible outcomes: T = active, F = inactive

STRUCTURE_AS_SMILES	SUBJECT_OF_TEST	CLASS_LABEL
O=C1/C=C/[C@@H](O)[C@@H]2C[C@@H](O)C[C@H]2/C=C/CCC[C@H](CCc2ccccc2)O1	RXF 393 renal	T
C=C(C)[C@@H]1CC[C@]2(C(=O)N3CCOCC3)CC[C@]3(C)[C@H](CC[C@@H]4[C@@]5(C)C/C(=C/c6ccncc6)C(=O)C(C)(C)[C@@H]5CC[C@]43C)[C@@H]12	RXF 393 renal	F
C/C(=N\O)c1ccc(Cl)cc1	RXF 393 renal	F
CC(C)c1ccc(C(=O)Nc2nc3ccc(O)c(CN(C)C)c3s2)cc1	RXF 393 renal	F
O=C1Nc2ccccc2/C1=C/c1cccn1CCCCn1c2ccccc2c(=O)c2ccccc21	RXF 393 renal	F
O=C(NNC(=O)c1ccc(NC(=O)c2ccccn2)cc1)Nc1ccc([N+](=O)[O-])cc1	RXF 393 renal	F
COc1ccc(-c2noc(C(=O)O)c2-c2cc(OC)c(OC)c(OC)c2)cc1	RXF 393 renal	F
CCOC(=O)c1c2c(n3cccc(F)c13)C(=O)c1ncccc1C2=O	RXF 393 renal	T
O=c1[nH]c(Cc2nc3ccccc3s2)nc2cc(Br)ccc12	RXF 393 renal	F

* * *

test system: HCC-2998 colon; assay: NCI-60 one-dose screen, 48 h (100 = growth as untreated, 0 = no growth, -100 = all killed); settings: 10 µM unless noted
This is part of a sample that, as a whole, favours compounds with a hit. Of some 83,000 tested, about 20% had one in any assay.

MOLECULE	growth (%)
Cc1cn(-c2cc(NC(=O)c3cncc(C#Cc4cnc(N)c5ncccc45)c3)cc(C(F)(F)F)c2)cn1	79.8
C=C(C)[C@@H]1CCC[C@]2(COS(=O)(=O)c3ccc(C)cc3)CC[C@]3(C)[C@@H](CC[C@@H]4[C@@]5(C)CCCNC(C)(C)[C@@H]5CC[C@]43C)[C@@H]12	-75.8
CN(C)CCNC(=O)c1cc2c3cc(Cl)ccc3[nH]c2c2ncccc12	-45.1
COc1ccc(/C=C/C(=O)c2cc3c(N)c(C(=O)Nc4cccc5ccccc45)sc3nc2C)cc1	94.9
C/C(=N\O)c1ccc(Cl)cc1	95.9
O=C(C[C@]1(O)C(=O)Nc2ccccc21)c1cccc(C(F)(F)F)c1	107
O=C(c1nn(-c2ccccc2)c2c1CC(NCc1ccc(F)cc1)CC2)N1CCCCC1 (configuration not stated)	104

* * *

test system: M14 melanoma; test: NCI-60 one-dose screen, 48 h (100 = growth as untreated, 0 = no growth, -100 = all killed); settings: 10 µM unless noted
About 83,000 compounds went through this panel and 20% of them were active in at least one assay; those are over-represented in the sample as a whole.
Measured growth by item
READOUT: growth (%)

COMPOUND	DISPLAY_UNIT	OBSERVED_VALUE
CCCc1c(OC(=O)c2ccccc2)nc2[nH]c(=O)sc2c1C	%	99.4
COc1ccc(C2CC(c3ccc(Nc4nc(Nc5ccccc5)nc(Nc5ccccc5)n4)cc3)=NN2C(C)=O)cc1 (centres undefined)	%	107
Cn1c(=O)cc2c3c(c(NCCCO)ccc31)C(=O)c1ccccc1-2	%	55.3
N#Cc1ccc2c(c1)C(=O)c1c-2n(CCCN)c(=O)c2cc([N+](=O)[O-])ccc12	%	-100
COc1cc(C2CC(c3ccc(Nc4nc(Nc5ccc(Cl)cc5)nc(Nc5ccc(Cl)cc5)n4)cc3)=NN2C(C)=O)cc(OC)c1OC (centres undefined)	%	102
CCOC(=O)NC(C)C	%	102
COc1cc2c(cc1OC)C(C)N(S(N)(=O)=O)CC2 (centres undefined)	%	91.8
COc1cc(/C=C/C(=O)c2ccc(F)cc2)ccc1OCCCCOc1ccc(/C=C/C(=O)c2c(C)nc3ccccc3c2C)cc1OC	%	103
COc1ccc(F)cc1/C=C/C(=O)/C=C(/C=C/c1cc(F)ccc1OC)OB(F)F	%	9.74
